target: Gal(a1-3)Gal(b1-3)GlcNAc(b1-2)Man; experiment: glycan array binding signal (z-score within array); higher = stronger binding; details: glycan notation: IUPAC condensed, linker removed
The full list was thinned out, with the strongest signals kept by preference.
Please provide measured glycan array binding signal (z-score) for the entries that follow.
Give bare numbers.

Take a look at these entries with their results.
EfCBM33A (Enterococcus faecalis), Q838S1 (protein) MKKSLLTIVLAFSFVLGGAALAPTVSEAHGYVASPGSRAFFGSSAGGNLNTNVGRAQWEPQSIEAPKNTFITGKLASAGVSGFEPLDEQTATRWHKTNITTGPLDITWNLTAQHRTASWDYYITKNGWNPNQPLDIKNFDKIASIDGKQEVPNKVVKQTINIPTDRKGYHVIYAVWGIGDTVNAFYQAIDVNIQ    1.41
Vd2LysM (Verticillium dahliae) (protein) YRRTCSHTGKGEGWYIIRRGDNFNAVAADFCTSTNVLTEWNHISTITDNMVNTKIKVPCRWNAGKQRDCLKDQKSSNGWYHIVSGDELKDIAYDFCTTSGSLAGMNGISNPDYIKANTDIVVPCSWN    0.43
Epa15 (Candida glabrata) (protein) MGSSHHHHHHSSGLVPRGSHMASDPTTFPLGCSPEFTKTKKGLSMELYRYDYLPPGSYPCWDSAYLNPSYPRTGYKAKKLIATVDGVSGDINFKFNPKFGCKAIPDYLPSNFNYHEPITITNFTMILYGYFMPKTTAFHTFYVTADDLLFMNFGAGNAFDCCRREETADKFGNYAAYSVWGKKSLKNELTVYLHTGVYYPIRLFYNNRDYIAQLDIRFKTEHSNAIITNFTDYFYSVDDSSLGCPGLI    1.8

Respectfully, I request glycan array binding signal (z-score) for each entry included below.
1. Aap arpt (Staphylococcus epidermidis) (protein) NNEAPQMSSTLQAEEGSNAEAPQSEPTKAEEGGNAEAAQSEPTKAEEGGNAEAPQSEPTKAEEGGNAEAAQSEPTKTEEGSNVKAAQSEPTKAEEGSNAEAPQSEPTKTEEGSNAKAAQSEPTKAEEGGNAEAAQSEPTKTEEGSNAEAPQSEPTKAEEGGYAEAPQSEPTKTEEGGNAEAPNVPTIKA
2. Pbx2CASH domain (Cryptococcus neoformans) (protein) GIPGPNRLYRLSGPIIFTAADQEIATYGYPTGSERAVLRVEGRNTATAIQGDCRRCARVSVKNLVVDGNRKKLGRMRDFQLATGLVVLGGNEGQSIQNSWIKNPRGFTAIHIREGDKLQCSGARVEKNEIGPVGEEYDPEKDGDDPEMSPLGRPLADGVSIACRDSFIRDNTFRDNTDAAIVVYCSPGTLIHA

[reply]
1. -0.261
2. 1.4
